measured property: melting point

>  <compound>
Nc1nc(Cl)c2ncn(OCC(O)CO)c2n1 (stereo not given)

>  <melting point>
155 to 158 °C

$$$$
>  <compound>
CS(=O)(=O)C(=C1CN(C(c2ccccc2)c2ccccc2)C1)c1cc(F)ccc1F

>  <melting point>
176 °C

$$$$
>  <compound>
COc1ccc(N(C(=O)c2c3ccccc3nc3ccccc23)S(=O)(=O)c2ccc(CCC(=O)ON3C(=O)CCC3=O)cc2)c(OC)c1

>  <melting point>
105 °C

$$$$
>  <compound>
CCNc1ccc2nc(Cl)c(S(N)(=O)=O)n2n1

>  <melting point>
218 to 220 °C

$$$$
>  <compound>
CCCc1c(COc2ccc3c(=O)cc(C(=O)O)oc3c2CCC)ccc(C(C)=O)c1O

>  <melting point>
195 to 205 °C

$$$$
>  <compound>
Cc1oc(-c2ccccc2)nc1COc1ccc(CCCC2OC(=O)NC2=O)cc1O (stereo not given)

>  <melting point>
162 to 164 °C

$$$$

Report melting point for O=C1CCCC(CN2CC=C(c3ccccc3)CC2)C1 (stereo not given) please.
56 to 59 °C

Another compound to check: COC(=O)C1Oc2ccccc2Cc2cccc(O)c2O1 (stereo not given)
163 to 165 °C

Another compound to check: `O=c1ccc(Oc2ccc3c(c2)CCC2(CCNCC2)O3)n[nH]1`
233 to 235 °C

* * *

Documented melting point across a set of compounds

Solved cases (2 shown):
>  <compound>
CCOC(=O)NN=COC(CC)NC (stereo not given)

>  <result>
104 °C

$$$$
>  <compound>
O=C(NCC(C(=O)O)C(F)(F)F)Nc1ccccc1 (stereo not given)

>  <result>
180 to 181 °C

$$$$

Report melting point for COc1cc(CC2(C#N)c3cc(Cl)c(Cl)cc3C=CN2C(=O)c2ccccc2)cc(OC)c1OC (stereo not given) please.
193 to 195 °C

Another compound to check: `COC(=O)c1ccccc1-c1cc(-c2ccc(OC)cc2)on1`
96.5 to 98 °C

Another compound to check: CC(C)C1C(=O)Nc2ccc(OCC3CO3)cc21 (stereo not given)
122 to 125 °C

Another compound to check: `COCOc1cc(F)ccc1-c1cc(-c2cccc(NC(=O)CN(C)C)c2)c(C#N)c(NC(=O)c2ccco2)n1`
168 to 169 °C

* * *

Documented melting point across a set of compounds

Report melting point for `O=C(NCCC(=O)N1CCCC1)c1ccc(-c2ccc3nnn(Cc4ccc5ncccc5c4)c3n2)cc1F` please.
151 to 153 °C

* * *

Documented melting point across a set of molecules

Solved cases (4 shown):
>  <molecule>
CCCC(Cc1ccc(OCCN2CCCCCC2)cc1)(C(=O)O)S(=O)(=O)c1ccc(OC)cc1 (stereo not given)

>  <result>
55 °C

$$$$
>  <molecule>
O=C(c1ccc(Cl)cc1)N1CC2CC2(c2ccc(Cl)cc2)C1 (stereo not given)

>  <result>
88 to 92 °C

$$$$
>  <molecule>
CC(C)(CCCC(=O)O)c1ccc(O)cc1

>  <result>
94 to 96 °C

$$$$
>  <molecule>
CCOC(=O)C(=NO)C(=O)OCC

>  <result>
86.5 to 88 °C

$$$$

Moving on to the next molecule.
Report melting point for `CCN1C(=O)C(C)(C)C(=O)N(C)c2cc(CN(CCn3ccc4oc(C(F)(F)F)cc4c3=O)Cc3cccnc3C)ccc21` please.
132 to 134 °C

Reference source for all entries: a melting point compilation (Tetko et al.; mined from patent text by program, amines drawn as free bases though some values may be those of a salt)
